Assay: Pharmacokinetic analysis of blood samples after oral brigimadlin
Assay type: in vivo, human
Conditions: human, plasma, oral, 80 mg
REPORTED_PROPERTY: AUC(0-inf) (µM·h)
Answers are plain numbers, in µM·h.

I am curious: what AUC(0-inf) value has been reported for Cc1c(C(=O)O)ccc2c3n(nc12)[C@@H]1[C@H](C3)N(CC2CC2)[C@@]2(C(=O)Nc3cc(Cl)ccc32)[C@H]1c1cccc(Cl)c1F ?
339

* * *

Assay: Pharmacokinetic analysis of blood samples after oral brigimadlin
Assay type: in vivo, human
Conditions: human, plasma, oral, 60 mg
REPORTED_PROPERTY: Cmax

I am curious: what Cmax value has been reported for Cc1c(C(=O)O)ccc2c3n(nc12)[C@@H]1[C@H](C3)N(CC2CC2)[C@@]2(C(=O)Nc3cc(Cl)ccc32)[C@H]1c1cccc(Cl)c1F ?
2480 nM
